# Test Method Notes: HSF-1 activators, primary screen, NIH3T3-HGL cells, MG132 stress, luminescence, single point (AID 504408);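 further: 0% = median of the neutral control wells and 100% = twice that signal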
# Condition Summary: NIH3T3-HGL HSF-1 luciferase reporter, MG132, 8 h; at 9 µM; stronger effect = higher value; 100% = twice DMSO control signal
The campaign covered roughly 300,000 compounds. About 5,200 (1.7%) were called active. Shown is part of a subset that was picked to be rich in actives.
Value Kind: activation (%)

- Compound: "CCCCOc1ccc(-c2ncc(C(=O)OCC)c(N)n2)cc1"
  Observed Result: 23.3
- Compound: "O=S(=O)(Nc1cccc(-c2ccc(N3CCOCC3)nn2)c1)c1ccc(Cl)c(Cl)c1"
  Observed Result: 5.14
- Compound: "CN(CC(=O)NCc1cccnc1)S(=O)(=O)c1cc(Cl)ccc1Cl"
  Observed Result: 1.99
- Compound: "OCCCNc1nc(-c2ccccc2)c2cc(Cl)ccc2n1"
  Observed Result: -8.88
- Compound: "CCC(c1nnnn1Cc1ccco1)N(CCc1ccccc1)Cc1cc2ccc(OC)cc2[nH]c1=O (stereo unspecified)"
  Observed Result: 9.84
- Compound: "NC(=O)c1ccsc1NC(=O)c1ccco1"
  Observed Result: 26.5
- Compound: "O=C(COC(=O)c1ccccc1Br)Nc1nnc(-c2ccccc2)o1"
  Observed Result: -10.6
- Compound: "CCC(c1nnnn1Cc1ccccc1)N(Cc1cc2cc(OC)ccc2[nH]c1=O)CC1CCCO1 (stereo unspecified)"
  Observed Result: 17.4
- Compound: "O=C(Nc1cccc2c1CCCC2)c1ccc(F)cc1"
  Observed Result: -3.19
- Compound: "O=C(Nc1ccccc1)c1ccco1"
  Observed Result: 11.5
- Compound: "CCCNC(=O)c1cnc(-c2ccccc2)nc1-c1ccccc1"
  Observed Result: 23.9

* * *

Entries and their activation
# Test Method Notes: HSF-1 activators, primary screen, NIH3T3-HGL cells, MG132 stress, luminescence, single point (AID 504408);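 further: 0% = median of the neutral control wells and 100% = twice that signal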
# Condition Summary: NIH3T3-HGL HSF-1 luciferase reporter, MG132, 8 h; at 9 µM; stronger effect = higher value; 100% = twice DMSO control signal
Out of some 300,000 compounds screened, about 5,200 (1.7%) were called active. The sample as a whole holds a higher share of actives than the screen did.
Value Kind: activation (%)

- Compound: "O=C(NCC(c1ccco1)N1CCc2ccccc21)c1cccc(F)c1 (stereo not drawn)"
  Unit Label: "%"
  Observed Result: 33.2
- Compound: "CCCCCCCNC(=O)C1(CC2CC(c3cccc(Br)c3)=NO2)CCN(C(=O)c2cc(OCC)c(OCC)c(OCC)c2)CC1 (stereo not drawn)"
  Unit Label: "%"
  Observed Result: 4.29
- Compound: "CCOC(=O)c1cccc(NC(=O)CCOc2ccccc2)c1"
  Unit Label: "%"
  Observed Result: 9.76
- Compound: "O=C(C(Cl)Cl)N1CCN(c2ccccn2)CC1"
  Unit Label: "%"
  Observed Result: 3.47
- Compound: "O=C1c2ccccc2NC(c2ccc(-c3cccc(Cl)c3)o2)N1O (stereo not drawn)"
  Unit Label: "%"
  Observed Result: 76.4
- Compound: "Cc1cc(C(=O)N/N=C/c2ccccc2[N+](=O)[O-])c(C)o1"
  Unit Label: "%"
  Observed Result: 58.5
- Compound: "CC(=O)c1ccc(S(=O)(=O)NC2CC(=O)N(c3ccc4c(c3)OCCO4)C2)cc1 (stereo not drawn)"
  Unit Label: "%"
  Observed Result: 8.08
- Compound: "CC1C(=O)N2CCCc3cc(S(=O)(=O)NCc4ccc(F)cc4)cc1c32 (stereo not drawn)"
  Unit Label: "%"
  Observed Result: 5.48
- Compound: "COc1ccc(S(=O)(=O)N2CCC(C(=O)N3CCc4ccccc4C3)CC2)cc1OC"
  Unit Label: "%"
  Observed Result: -2.14
- Compound: "COc1ccc(C(=O)c2c3ccc([N+](=O)[O-])cc3[n+]([O-])n2CCCN)cc1"
  Unit Label: "%"
  Observed Result: 11.6
- Compound: "CCCCn1c(N)c(N(CCOC)C(=O)c2cccc(OCc3ccccc3)c2)c(=O)[nH]c1=O"
  Unit Label: "%"
  Observed Result: -6.35
- Compound: "O=C(CSc1nc2ccc([N+](=O)[O-])cc2[nH]1)c1ccc(Cl)cc1"
  Unit Label: "%"
  Observed Result: 9.88
- Compound: "COc1cc(NS(=O)(=O)c2ccc3ccccc3c2)c2ncccc2c1"
  Unit Label: "%"
  Observed Result: -10.7
- Compound: "O=C(Nc1ncccc1O)c1ccc(S(=O)(=O)N2CCCC2)cc1"
  Unit Label: "%"
  Observed Result: 2.49
- Compound: "CCCCN(C(=O)c1ccc(S(=O)(=O)N2CCOCC2)cc1)C1CCS(=O)(=O)C1 (stereo not drawn)"
  Unit Label: "%"
  Observed Result: -15
- Compound: "Cc1[nH]c(=O)c(C(=O)/C=C/c2ccccc2)c2c1CCCC2"
  Unit Label: "%"
  Observed Result: 71
- Compound: "CCOC(=O)c1cc(C(C)C)sc1NC(=O)COC(=O)c1nccnc1N"
  Unit Label: "%"
  Observed Result: -14.3
- Compound: "Oc1c(C(c2ccccn2)N2CCOCC2)ccc2cccnc12 (stereo not drawn)"
  Unit Label: "%"
  Observed Result: 73.3
- Compound: "CCOC(=O)C(CCOc1cccc(CC)c1)C(=O)OCC"
  Unit Label: "%"
  Observed Result: 109
- Compound: "Cc1ccccc1NC(=O)c1ccccc1NS(=O)(=O)c1cccc2cccnc12"
  Unit Label: "%"
  Observed Result: -9.95
- Compound: "O=C(OCc1nnc(-c2ccccc2)o1)c1cc(=O)[nH]c2ccccc12"
  Unit Label: "%"
  Observed Result: -8.33
- Compound: "O=C(Cc1cc(=O)[nH][nH]1)N/N=C/c1ccccc1[N+](=O)[O-]"
  Unit Label: "%"
  Observed Result: -2.04
- Compound: "CC(Oc1ccc(Br)cc1)C(=O)NCC(c1ccco1)N1CCCCC1 (stereo not drawn)"
  Unit Label: "%"
  Observed Result: 12.7
- Compound: "CCCCn1c(N)c(N(CC(C)C)C(=O)c2cccc(S(=O)(=O)N3CC(C)OC(C)C3)c2)c(=O)[nH]c1=O (stereo not drawn)"
  Unit Label: "%"
  Observed Result: -0.424
- Compound: "CNC(=O)COC(=O)c1cc(-c2ccc(OC)cc2)nc2ccccc12"
  Unit Label: "%"
  Observed Result: 31.1
- Compound: "CC(C)c1cc(C(=O)N/N=C/C(Br)=C/c2ccccc2)n[nH]1"
  Unit Label: "%"
  Observed Result: 40.2
- Compound: "O=[N+]([O-])c1ccc(O)c(/C=N/Nc2ccccc2[N+](=O)[O-])c1"
  Unit Label: "%"
  Observed Result: -10.2
- Compound: "CC(C)c1cc(CN2CCOCC2)cc(C(C)C)c1O"
  Unit Label: "%"
  Observed Result: 4.46
- Compound: "CN(C1CCS(=O)(=O)C1)S(=O)(=O)c1ccc2ccccc2c1 (stereo not drawn)"
  Unit Label: "%"
  Observed Result: -4.34
- Compound: "COc1ccc(Cl)cc1C=CC=NNC(=O)c1ccncc1"
  Unit Label: "%"
  Observed Result: 5.04
- Compound: "CCn1c(SCC(=O)Nc2ccc3c(c2)OCCO3)nnc1C(C)C"
  Unit Label: "%"
  Observed Result: -3.33
- Compound: "N[C@@H](Cc1ccccc1)C(=O)N1CCOCC1"
  Unit Label: "%"
  Observed Result: -19.9
- Compound: "CCOc1ccc(CCNC(=O)COC(=O)c2c(OC)cccc2OC)cc1OCC"
  Unit Label: "%"
  Observed Result: -2.88
- Compound: "CCCn1c(SCC(N)=O)nnc1C(C)C"
  Unit Label: "%"
  Observed Result: 1.36
- Compound: "Cc1cc(C(=O)N2CCN(c3ccccn3)CC2)c(C)o1"
  Unit Label: "%"
  Observed Result: 62.2
- Compound: "CCOC(=O)c1c(C)nc2c(c1C)c(=O)oc1ccccc12"
  Unit Label: "%"
  Observed Result: 36.6
- Compound: "O=C(N/N=C/c1cc(Br)c(O)c([N+](=O)[O-])c1)C(O)(c1ccccc1)c1ccccc1"
  Unit Label: "%"
  Observed Result: 3.81
- Compound: "CCN(C(=O)CSc1nnc(-c2ccc(OC(F)F)cc2)n1N)C1CCS(=O)(=O)C1 (stereo not drawn)"
  Unit Label: "%"
  Observed Result: -15.1
- Compound: "CCCCC(=O)Nc1cc(C)c2c(=O)oc3ccccc3c2n1"
  Unit Label: "%"
  Observed Result: 6.46
- Compound: "Cc1cc(C(=O)N/N=C/c2ccc(N3CCOCC3)cc2)c(C)o1"
  Unit Label: "%"
  Observed Result: -5.06
- Compound: "O=C(COC(=O)Cn1[nH]c(=O)c2ccccc2c1=O)Nc1c(Cl)cccc1C(F)(F)F"
  Unit Label: "%"
  Observed Result: -2.68
- Compound: "Brc1ccccc1C1N=C(c2ccccc2)NO1 (stereo not drawn)"
  Unit Label: "%"
  Observed Result: 9.38
- Compound: "COc1ccc(NC(=O)c2cc(-c3cc(OC)c(OC)c(OC)c3)nc3ccccc23)c(OC)c1"
  Unit Label: "%"
  Observed Result: -3.17

Provenance of the data: PubChem BioAssay AID504408
